tested on: L-363 human multiple myeloma cells; test: In vitro proliferation assay (CellTiter-Blue), L-363 cells; format: cell-based; settings: antibody conjugated to MMAF, four days, read-out: IC50, MMAF ADC
assayReadout: pIC50
One number for each entry, as −log10 of the molar value.

Reference set (4 entries):
molecule	assayReadout	testResult
Mu31D2 (conjugate, conjugate) VH: EVKLVESEGGLVQPGSSMKLSCTASGFTFSDYYMAWVRQVPEKGLEWVADINYDGGSTYYLDSLKSRFIISRDNAKNILCLQMSSLKSEDTATYYCARDRGYYFDYWGQGTTLTVSS VL: DVVMTQTPLSLPVSLGDQASISCRSSQSLVHSNGNTYLHWYLQKPGQSPKLLIYKVSNRFSGVPDRFSGSGSGTDFTLKISRVEAEDLGVYFCSQSTHVPPFTFGGGTKLEIK	pIC50	9.92
Mu27A12 (conjugate, conjugate) VH: EVKLVESEGGLVQPGSSMKLSCTASGFTFSDYYMAWVRQVPEKGLEWVAEINYDGSSTYYLDSLKSRFIISRDNAKNILYLQMSNLKSEDTATYYCARDRGFYFDYWGQGTTLTVSS VL: DVVMTQTPLSLPVSLGDQASISCRSSQSLVHNNGNTYLHWYLQKPGQSPKLLIYKVSNRFSGVPDRFSGSGSGTDFTLKISRVEAEDLGVYFCSQSTHVPPYTFGGGTKLEIK	pIC50	9.96
Mu34C3: murine anti-CS1 antibody, VH SEQ ID NO: 5, VL SEQ ID NO: 6; in Table 5 tested as MMAE, MMAF, duocarmycin ADCs (antibody, V domains shown) VH: EVKLVESEGGLVQPGSSMKLSCTASGFTFSDYYMAWVRQVPEKGLEWVASINYDGSSTYYLDSLKSRFIISRDNAKNILFLQMNSLKSEDTATYYCARDRGYYFDYWGQGTTLTVSS VL: DVVMTQTPLSLPVSLGDQASISCRSSQSLVHSNGNTYLHWYLQKPGQSPKLLIYKVSNRFSGVPDRFSGSGSGTDFTLKISRVEAEDLGVYFCSQSTHVPPFTFGGGTKLEIK	pIC50	10.10
Mu14C11 (conjugate, conjugate) VH: EVKLVESEGGLVQPGSSMKLSCTASGFTFSDYYMAWVRQVPEKGLEWVASINYDGSSTYYLDSLKSRFIISRDNAKNILYLQMSGLKSEDTATYSCARDRGFYFDYWGQGTTLTVSS VL: DVVMTQTPLSLPVSLGDQASISCRSSQSLVHRNGNTYLHWYLQKPGQSPKLLIYKVSNRFSGVPDRFSGSGSGTDFTLKISRVEAEDLGVYFCSQSTHVPPYTFGGGTKLEIK	pIC50	9.60

Continue with the next molecule.
Exercise: Any idea what its pIC50 is? The molecule is Mu12D10 (conjugate, conjugate) VH: EVKLVESEGGLVQPGSSMKLSCTASGFTFSDYFMAWVRQVPEKGLEWVASINYDGNSTYFLDSLKSRFIISRDNAKNILYLQMSSLKSEDTATYYCARDRGFYFDYWGQGTTLTVSS VL: DVVMTQTPLSLPVSLGDQASISCRFSQSLVHRNGNTYLHWYLQKPGQSPKLLIYKVSNRFSGVPDRFSGSGSGTDFTLKISRVEAEDLGVYFCSQSTHVRPYTFGGGTKLEIR
Key: 9.82
